Assign MIC Staphylococcus aureus (GC 4541) to each entry below.
- Tested on: Staphylococcus sp.
- METHOD_DESCRIPTION: In vitro antibacterial evaluation: minimum inhibitory concentration (MIC), broth dilution method
- Assay type: cell-based
- APPLIED_CONDITIONS: broth dilution, 5×10^5 CFU/mL, 18 hours at 35° C.
Number only, in µg/mL; omit the unit.

### Prompt # get_value(readout='MIC Staphylococcus aureus (GC 4541)', item= CC(c1ccccc1)C1NC(=O)CNC(=O)C(CO)NC(=O)C(C(O)C2CNC(=N)N2C2OC(CO)C(O)C(O)C2O)NC(=O)C(C(O)C2CNC(=N)N2)NC(=O)C(Cc2ccc(OC3OC(CO)C(OC4OC5COC(c6cccc(Cl)c6)OC5C(O)C4O)C(O)C3O)cc2)NC1=O (stereo not drawn) )
### Response 2

### Prompt Moving on to the next compound: Cc1ccc(Oc2ccc(C3OCC4OC(OC5C(CO)OC(Oc6ccc(CC7NC(=O)C(C(C)c8ccccc8)NC(=O)CNC(=O)C(CO)NC(=O)C(C(O)C8CNC(=N)N8C8OC(CO)C(O)C(O)C8O)NC(=O)C(C(O)C8CNC(=N)N8)NC7=O)cc6)C(O)C5O)C(O)C(O)C4O3)cc2)cc1 (stereo not drawn)
### Response 2

### Prompt Moving on to the next compound: CC(=O)n1cc(C2OCC3OC(OC4C(CO)OC(Oc5ccc(CC6NC(=O)C(C(C)c7ccccc7)NC(=O)CNC(=O)C(CO)NC(=O)C(C(O)C7CNC(=N)N7C7OC(CO)C(O)C(O)C7O)NC(=O)C(C(O)C7CNC(=N)N7)NC6=O)cc5)C(O)C4O)C(O)C(O)C3O2)c2ccccc21 (stereo not drawn)
### Response 4

### Prompt Moving on to the next compound: Cc1cc(C2OCC3OC(OC4C(CO)OC(Oc5ccc(CC6NC(=O)C(C(C)c7ccccc7)NC(=O)CNC(=O)C(CO)NC(=O)C(C(O)C7CNC(=N)N7C7OC(CO)C(O)C(O)C7O)NC(=O)C(C(O)C7CNC(=N)N7)NC6=O)cc5)C(O)C4O)C(O)C(O)C3O2)ccc1[N+](=O)[O-] (stereo not drawn)
### Response 4

### Prompt Moving on to the next compound: CCCc1ccc(C2OCC3OC(OC4C(CO)OC(Oc5ccc(CC6NC(=O)C(C(C)c7ccccc7)NC(=O)CNC(=O)C(CO)NC(=O)C(C(O)C7CNC(=N)N7C7OC(CO)C(O)C(O)C7O)NC(=O)C(C(O)C7CNC(=N)N7)NC6=O)cc5)C(O)C4O)C(O)C(O)C3O2)cc1 (stereo not drawn)
### Response 1

### Prompt Moving on to the next compound: COc1cc(C2OCC3OC(OC4C(CO)OC(Oc5ccc(CC6NC(=O)C(C(C)c7ccccc7)NC(=O)CNC(=O)C(CO)NC(=O)C(C(O)C7CNC(=N)N7C7OC(CO)C(O)C(O)C7O)NC(=O)C(C(O)C7CNC(=N)N7)NC6=O)cc5)C(O)C4O)C(O)C(O)C3O2)cc([N+](=O)[O-])c1O (stereo not drawn)
### Response 32
